assay.target: norepinephrine transporter (UniProt Q9WTR4)
protocol.description: Inhibition of [3H]nisoxetine radioligand binding at the norepinephrine transporter
stated.conditions: read-out: IC50 NE [3H] Nisoxetine; Table III
Text: Illustrative in vitro assays for binding are described in Boja et al Ann. NY Acad. Sci. 654:282-291 (1992), which is incorporated herein by reference in its entirety. […] Alternatively, the compounds may be analyzed by their ability to inhibit reuptake of a labelled neurotransmitter in a sample, in particular, in synaptosomes.

[
  {
    "compound": "CCc1ccc(C2CC3CCC(N3)C2C(=O)OC)cc1I (centres unmarked)",
    "IC50 / µM": 0.148
  },
  {
    "compound": "COC(=O)C1C2CCC(CC1c1ccc(C)c(I)c1)N2 (centres unmarked)",
    "IC50 / µM": 0.0743
  }
]

* * *

Measured IC50 of individual entries
assay.target: norepinephrine transporter (UniProt Q9WTR4)
protocol.description: Inhibition of [3H]nisoxetine radioligand binding at the norepinephrine transporter
stated.conditions: read-out: NEN IC50 for inhibition of radioligand binding; NEN=[3H] nisoxetine

[
  {
    "compound": "CN1C2CCC1C(C(=O)NCO)C(c1ccc(Cl)cc1)C2 (stereo not drawn)",
    "measurement.units": "nM",
    "IC50": 144
  },
  {
    "compound": "COC(=O)C1C(c2ccc3ccccc3c2)CC2CCC1N2C (stereo not drawn)",
    "measurement.units": "nM",
    "IC50": 70.2
  },
  {
    "compound": "CC#Cc1ccc(C2CC3CCC(C2C(=O)OC)N3C)cc1 (stereo not drawn)",
    "measurement.units": "nM",
    "IC50": 820
  },
  {
    "compound": "Cc1ccc(OC(=O)C2C(c3ccc(Cl)cc3)CC3CCC2N3C)cc1 (stereo not drawn)",
    "measurement.units": "nM",
    "IC50": 1280
  },
  {
    "compound": "Fc1ccc(C2CC3CCC(N3)C2COc2ccc3c(c2)OCO3)cc1 (stereo not drawn)",
    "measurement.units": "nM",
    "IC50": 14.4
  },
  {
    "compound": "COC(=O)C1C(c2ccc(F)c(C)c2)CC2CCC1N2C (stereo not drawn)",
    "measurement.units": "nM",
    "IC50": 520
  },
  {
    "compound": "CCC#Cc1ccc(C2CC3CCC(N3)C2C(=O)OC)cc1 (stereo not drawn)",
    "measurement.units": "nM",
    "IC50": 116
  },
  {
    "compound": "Cc1ccc(C2CC3CCC([C@H]2c2nc(-c4ccccc4)no2)N3C)cc1 (stereo partly drawn)",
    "measurement.units": "nM",
    "IC50": 60
  },
  {
    "compound": "CCc1ccc(C2CC3CCC(C2C(=O)OC)N3C)cc1I (stereo not drawn)",
    "measurement.units": "nM",
    "IC50": 1350
  }
]

* * *

assay.target: dopamine transporter (UniProt P23977)
Type: binding
stated.conditions: read-out: DA IC50 for inhibition of radioligand binding; DA=[3H]WIN 35,428
pIC50: −log10 of the molar value. Counter-ions that a name gives are not always drawn.
Everything with pIC50 lower than 8 is no (0); everything else, including exactly 8, is yes (1).

[
  {
    "molecule": "Cc1noc([C@@H]2C(c3ccccc3)CC3CCC2N3C)n1 (stereo partly drawn)",
    "category.label": "no (0)"
  },
  {
    "molecule": "CN1C2CCC1C(c1nc(-c3ccc(Br)cc3)no1)C(c1ccc(Cl)cc1)C2 (stereo not drawn)",
    "category.label": "yes (1)"
  },
  {
    "molecule": "CCc1ccc(C2CC3CCC(C2C(=O)OC)N3C)cc1 (stereo not drawn) [RTI-4229-287]",
    "category.label": "no (0)"
  },
  {
    "molecule": "CC(C)C1C(c2ccc(Cl)cc2)CC2CCC1N2C (stereo not drawn)",
    "category.label": "yes (1)"
  },
  {
    "molecule": "COC(=O)C1C(c2ccc(C)cc2)CC2CCC1N2C (stereo not drawn)",
    "category.label": "yes (1)"
  },
  {
    "molecule": "CC(C)OC(=O)C1C2CCC(CC1c1ccc(I)cc1)N2 (stereo not drawn)",
    "category.label": "yes (1)"
  },
  {
    "molecule": "CN1C2CCC1C(c1nc(-c3ccccc3)no1)C(c1ccc(Cl)cc1)C2 (stereo not drawn)",
    "category.label": "yes (1)"
  },
  {
    "molecule": "Cc1ccc([C@H]2C[C@@H]3CC[C@H]([C@H]2c2nnc(-c4ccccc4)o2)N3C)cc1 [RTI-4229-195, Hydrochloride]",
    "category.label": "no (0)"
  },
  {
    "molecule": "COc1ccc(-c2noc(C3C(c4ccc(Cl)cc4)CC4CCC3N4C)n2)cc1 (stereo not drawn)",
    "category.label": "yes (1)"
  }
]

* * *

assay.target: dopamine transporter (UniProt P23977)
Format: binding
stated.conditions: read-out: IC50 DA [3H]-WIN 35,428; Table IV
Where a name gives a salt, the structure may show the parent alone.
readout.label: IC50 (nM)

[
  {
    "compound": "CN1[C@H]2CC[C@@H]1[C@@H](CO)[C@@H](c1ccc(Br)cc1)C2 [RTI-99]",
    "assay.target": "dopamine transporter (UniProt P23977)",
    "value.observed": 1.49
  },
  {
    "compound": "COC(=O)CC1C(c2ccc(C)cc2)CC2CCC1N2C (stereo not drawn) [RTI-4229-241]",
    "assay.target": "dopamine transporter (UniProt P23977)",
    "value.observed": 1.02
  },
  {
    "compound": "Cc1ccc([C@H]2C[C@@H]3CC[C@H]([C@H]2CN)N3C)cc1 [RTI-131]",
    "assay.target": "dopamine transporter (UniProt P23977)",
    "value.observed": 10.5
  },
  {
    "compound": "CN1[C@H]2CC[C@@H]1[C@@H](C(=O)O)[C@@H](c1ccc(Br)cc1)C2 [RTI-103]",
    "assay.target": "dopamine transporter (UniProt P23977)",
    "value.observed": 278
  },
  {
    "compound": "CN1[C@H]2CC[C@@H]1[C@@H](CO)[C@@H](c1ccc(F)cc1)C2 [RTI-100]",
    "assay.target": "dopamine transporter (UniProt P23977)",
    "value.observed": 47
  },
  {
    "compound": "CN1[C@H]2CC[C@@H]1[C@@H](C#N)[C@@H](c1ccc(Cl)cc1)C2 [RTI-161, 3β-(4-Chlorophenyl)-tropane-2β-nitrile]",
    "assay.target": "dopamine transporter (UniProt P23977)",
    "value.observed": 13.1
  },
  {
    "compound": "CN1C2CCC1C(COC(=O)c1ccccc1)C(c1ccc(Cl)cc1)C2 (stereo not drawn) [RTI-4229-123]",
    "assay.target": "dopamine transporter (UniProt P23977)",
    "value.observed": 1.78
  },
  {
    "compound": "CN1[C@H]2CC[C@@H]1[C@@H](C(=O)O)[C@@H](c1ccc(F)cc1)C2 [RTI-104]",
    "assay.target": "dopamine transporter (UniProt P23977)",
    "value.observed": 2740
  },
  {
    "compound": "CC(=O)OC[C@@H]1C2CCC(C[C@@H]1c1ccc(Cl)cc1)N2C (stereo partly drawn) [RTI-4229-105]",
    "assay.target": "dopamine transporter (UniProt P23977)",
    "value.observed": 1.8
  },
  {
    "compound": "Cc1ccc([C@H]2C[C@@H]3CC[C@H]([C@H]2C#N)N3C)cc1 [RTI-158, Hydrochloride]",
    "assay.target": "dopamine transporter (UniProt P23977)",
    "value.observed": 57
  },
  {
    "compound": "Cc1ccc(C2CC3CCC(C2C(C)C)N3C)cc1 (stereo not drawn) [RTI-4229-239]",
    "assay.target": "dopamine transporter (UniProt P23977)",
    "value.observed": 0.61
  },
  {
    "compound": "CN1C2CCC1C(CO)C(c1ccc(I)cc1)C2 (stereo not drawn) [RTI-4229-101]",
    "assay.target": "dopamine transporter (UniProt P23977)",
    "value.observed": 2.2
  },
  {
    "compound": "COC(=O)OCC1C(c2ccc(Cl)cc2)CC2CCC1N2C (stereo not drawn) [RTI-4229-145]",
    "assay.target": "dopamine transporter (UniProt P23977)",
    "value.observed": 9.6
  },
  {
    "compound": "Cc1ccc(C2CC3CCC(C2CN(C)C)N3C)cc1 (stereo not drawn) [RTI-4229-132]",
    "assay.target": "dopamine transporter (UniProt P23977)",
    "value.observed": 3.48
  },
  {
    "compound": "CNC[C@H]1[C@@H](c2ccc(C)cc2)C[C@@H]2CC[C@H]1N2C [RTI-164]",
    "assay.target": "dopamine transporter (UniProt P23977)",
    "value.observed": 13.6
  },
  {
    "compound": "CN1C2CCC1[C@@H](CCl)[C@@H](c1ccc(Cl)cc1)C2 (stereo partly drawn) [RTI-4229-108]",
    "assay.target": "dopamine transporter (UniProt P23977)",
    "value.observed": 2.64
  },
  {
    "compound": "CN1[C@H]2CC[C@@H]1[C@@H](C(=O)O)[C@@H](c1ccc(I)cc1)C2 [RTI-102]",
    "assay.target": "dopamine transporter (UniProt P23977)",
    "value.observed": 474
  },
  {
    "compound": "CC1C(c2ccc(Cl)cc2)CC2CCC1N2C (stereo not drawn) [RTI-4229-139]",
    "assay.target": "dopamine transporter (UniProt P23977)",
    "value.observed": 1.87
  },
  {
    "compound": "CN1[C@H]2CC[C@@H]1[C@@H](CO)[C@@H](c1ccc(Cl)cc1)C2 [RTI-93]",
    "assay.target": "dopamine transporter (UniProt P23977)",
    "value.observed": 1.53
  },
  {
    "compound": "C=C(C)C1C(c2ccc(Cl)cc2)CC2CCC1N2C (stereo not drawn) [RTI-4229-230]",
    "assay.target": "dopamine transporter (UniProt P23977)",
    "value.observed": 1.28
  },
  {
    "compound": "CC(C)C1C(c2ccc(Cl)cc2)CC2CCC1N2C (stereo not drawn) [RTI-4229-240]",
    "assay.target": "dopamine transporter (UniProt P23977)",
    "value.observed": 1.38
  }
]
